Tested on: PPARg:RXRa 90nM:30nM, anti-RXR (NR concentration 90 nM, RXRa partner concentration 30 nM)
Assay: PBM binding z-score (relative to random genomic background probes); higher = stronger binding; sequences stand for … in GC…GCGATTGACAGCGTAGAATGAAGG
Below: a set of entries, each annotated with reported PBM binding z-score.
quantityKind: PBM binding z-score

{"inputSequence": "TCTTGTAGATCAACTGGAGGTTAAGAAAGATCGA", "val": 1.89}
{"inputSequence": "TCGAGTAGGTTACCAATGGGCCATTCAGCTTTCT", "val": 1.04}
{"inputSequence": "TCTAGTTGGTCACGGAGGTCACACAAGACGGGTA", "val": 3.75}
{"inputSequence": "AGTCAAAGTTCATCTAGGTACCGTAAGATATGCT", "val": 5.38}
{"inputSequence": "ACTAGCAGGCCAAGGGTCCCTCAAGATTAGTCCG", "val": 3.84}
{"inputSequence": "CGAACTAGGTCAGAACAAGACAGTGAAGGATGAT", "val": 3.41}
{"inputSequence": "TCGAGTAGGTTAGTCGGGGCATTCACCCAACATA", "val": 0.993}
{"inputSequence": "AGTCAAAGTTCACTAGGTGACGTAAGATTCAGCT", "val": 6.5}
{"inputSequence": "TCGAGTAGGTTAGTCGGGGCATACAGCCAACATA", "val": 1.07}
{"inputSequence": "CCTACTGGGCCAAAAAAGTCATTGATGCCGATAA", "val": 0.41}
{"inputSequence": "ATCTAAAGGTCGTGAGGTGAGTATACAGAAAGGC", "val": 3.72}
{"inputSequence": "TCATATAGGTAATACAGGTGTAAGTCGGCATCTA", "val": 3}

----------
System: VDR homodimer (NR concentration 270 nM)
Assay: PBM binding z-score (relative to random genomic background probes); higher = stronger binding; sequences stand for … in GC…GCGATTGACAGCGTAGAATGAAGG
PBM binding z-score values, listed per item

{"inputSequence": "CAAACTAGGTCCAGGTCAAAGTCGGTTTGTGCCA", "PBM binding z-score": 2.49}
{"inputSequence": "ACTCGGAGGACAAAGGTCAGAGTTACGCCAGTGA", "PBM binding z-score": 0.984}
{"inputSequence": "GCTAATAGTTGAAAGGGCAACCGAATGATTCTCG", "PBM binding z-score": 0.235}
{"inputSequence": "ACTATTAGTTGTGACGAGGGCAACCGATAGGTTG", "PBM binding z-score": 0.862}
{"inputSequence": "ATATGTAGGTTACATCTGGGTCATTCAGGCTATG", "PBM binding z-score": 1.8}
{"inputSequence": "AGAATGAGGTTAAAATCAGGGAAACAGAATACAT", "PBM binding z-score": 0.808}
{"inputSequence": "ATCTCTAGGCAAAGTTCAGTGAAAGATCGATAGA", "PBM binding z-score": 1.48}
{"inputSequence": "TAGCCTAGGTCATTGGGCCAGAATAGTACGCATC", "PBM binding z-score": 1.12}
{"inputSequence": "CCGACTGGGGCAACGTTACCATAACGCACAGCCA", "PBM binding z-score": -0.403}
{"inputSequence": "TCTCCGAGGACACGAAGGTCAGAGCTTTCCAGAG", "PBM binding z-score": 1.76}
{"inputSequence": "GCTAGTTGGACAGTAAAAGGTCACACACCGGTCG", "PBM binding z-score": 1.59}
{"inputSequence": "CCGACTGGGGCAAAGGATACCATACTCAGTACGA", "PBM binding z-score": -0.406}
{"inputSequence": "GATCCAGGGTCAAGGCCAGAGTACGCGTATTGAT", "PBM binding z-score": 2.04}
{"inputSequence": "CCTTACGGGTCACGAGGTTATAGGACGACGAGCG", "PBM binding z-score": 1.85}
{"inputSequence": "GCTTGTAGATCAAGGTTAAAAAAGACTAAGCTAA", "PBM binding z-score": 0.0143}
{"inputSequence": "CCTGCTAGGTCAATGGTCAGCTGAAGCAGCTCGC", "PBM binding z-score": 0.0523}
{"inputSequence": "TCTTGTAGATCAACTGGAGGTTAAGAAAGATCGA", "PBM binding z-score": -0.0194}
{"inputSequence": "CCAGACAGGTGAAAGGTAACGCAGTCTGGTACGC", "PBM binding z-score": -0.146}
{"inputSequence": "GGAACGAGGGCCAAGTTGATAGCATCTGTCGACG", "PBM binding z-score": -0.364}
{"inputSequence": "CCAGACAGGTGAGCAGGTAACTCAGCCTCGATTA", "PBM binding z-score": -0.319}
{"inputSequence": "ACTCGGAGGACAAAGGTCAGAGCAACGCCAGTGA", "PBM binding z-score": 1.14}
{"inputSequence": "CAAACTAGGTCAAAGGTCATAGTCGAGCCAACCA", "PBM binding z-score": 3.55}
{"inputSequence": "ATCTCTAGGTAACCAAGTTCAGTGAATGCCGAAC", "PBM binding z-score": 2.99}
{"inputSequence": "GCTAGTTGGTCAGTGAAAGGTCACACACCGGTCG", "PBM binding z-score": 1.73}
{"inputSequence": "ATCGAAAGCTCGAAGGTGAGTATACCCACCCGAA", "PBM binding z-score": -0.249}
{"inputSequence": "TCTTGAAGATCAGCAGGTTAAGAAAGCTGGCCAA", "PBM binding z-score": -0.317}
